# credit: the supplement of paper PMC9170038

- Test system: MS2 coat protein
- Method summary: apparent KD of MS2 coat protein; designed switch direction (-1 OFF switch, 1 ON switch): -1; higher = weaker reporter binding
- Condition description: input ligand: FMN 200 uM
Entries are sorted into classes by apparent KD of MS2 coat protein as follows: c1 = under 20 nM, c2 = from 20 nM up to 40 nM, c3 = 40 nM and over

sequence_content="GGUUGGCGAGGAUAUACAUGAGGAUCACCCAUGUGAUCCUAAGGCUGAUCAAGCCUAUGUAGAAGGCGCAAAUC [salish99_ex3_r4_009] (Eterna round: R97, puzzle: Exclusion 3)" class=c3
sequence_content="GGCAUCGGAGGAUAUACUUAUGGUGAUACCCGAAGCUUUCUACUUGAGGAUCACCCAAGUAGAAGGCCGAUGCC [jl-ex2.4.81 ViennaUCT mod] (Eterna round: R97, puzzle: Exclusion 2)" class=c1
sequence_content="CGCACCACAUGAGGAUCAAACAUGAGGAUCACCCAUGUAUAACAAGCUUUUUGCUCGUCUUAUAAAUAUGUGGUGCG [Electric Eye 3 - Jieux - Sensor, turn-off variant 1] (Eterna round: R97, puzzle: Sensor, turn-off variant 1)" class=c1
sequence_content="CUAGCGAGUGUAGGAUAUCGGACUGUUUCAGUCUGAGAAGGACAUGAGGAUCACCCAUGUAUUGCUACGUGAGUAGCACGCUAG [JL ENG1 3.00] (Eterna round: R96, puzzle: Exclusion NG 1)" class=c2
sequence_content="UAUUAGCAAGCGAGAUCCCACAUGAGGAUCACCCAUGUAAUAAAAGCAUCCAGAAUUACUGGGUGCGCUCGUCUUAU [Winner reversed engineered 14] (Eterna round: R97, puzzle: Sensor, turn-off variant 1)" class=c3
sequence_content="GAUUAACAUGAGGAUCACCCAUGUGAGGAUAUGGACUUGCCCACUUAACCAUUAGAGUCUAGAAGGCGCAUCUG [1986#25] (Eterna round: R97, puzzle: Exclusion 1)" class=c2
sequence_content="CCAAGCUUAUUCAUUAACCACAUGAGGAUCACCCAUGUCUAGGCAAUUAUGACUUGCCCAUCUGGUGCUCGUCUUAU [Sensor-V1 #32] (Eterna round: R97, puzzle: Sensor, turn-off variant 1)" class=c2
sequence_content="GUAAACGAAGAGGAUAUAUGAUAUCAAAGCUUCAUAGAAGGCUUCACAUGAGGAUCACCCAUGUGAUCUUCAAG [Mat - Exclusion 6 - JL Mod - D25] (Eterna round: R97, puzzle: Exclusion 6)" class=c3
sequence_content="ACAUGAGGAUCACCCAUGUCCGGCUGGUCCGUCUCGGCUGUCGAGGAUAUGGCUCGGUGUCCGCGCUAGAAGGCGGGAGCCGGA [Aenatbe mod 76] (Eterna round: R96, puzzle: Exclusion NG 3)" class=c2
sequence_content="AGCAUGUGAGGAUAUGCGGACUCCGGUAAAGCUGGAGUCCAGUAGAAGGCACAUGAGGAUCACCCAUGUGAGAU [Uszadi] (Eterna round: R96, puzzle: Exclusion 4)" class=c3

Problem: For the record UCUUAGUCAGGAUAUACAUGAGGAUCACCCAUGUAAAAUUUUAAUUUAAUUUUAAGGUGUAGAAGGGACCACUU [Ex3 #19] (Eterna round: R97, puzzle: Exclusion 3) , report the class its apparent KD of MS2 coat protein corresponds to.
Result: c2

Problem: Which band does GCAGAAAGUGUAGGAUAUAGAUAUUAGCGGAAACGCAAUACAUGAGGAUCACCCAUGUUUCCUCACUAGAAGGGCAAAAGCUGC [EXNG2 V2 d] (Eterna round: R96, puzzle: Exclusion NG 2) fall in?
Result: c1

Problem: Into which bin does this sequence go? AGCGGACAAGGAUAUACAUGAGGAUCACCCAUGUACUUAGCAAGUUUGUUUCGUCGAUGUAGAAGGUGUAAUGU [EX3 C.14] (Eterna round: R97, puzzle: Exclusion 3)
Result: c1

Problem: The entry to classify is GUUGUCCUUGUAAGGAUAUCCGGAUAGAGCAUAUCGGAGAAGGUACAUGAGGAUCACCCAUGUCUCACCGUGCU [Eternabot (L1) Solution 95] (Eterna round: R97, puzzle: Brourd's mod of Exclusion 4) ; which class holds it?
Result: c1

Problem: Which apparent KD of MS2 coat protein category applies to CGUCUGUCAGGAUAUACUUACGUAGACAUGAGGAUCACCCAUGUGACGUGGGACUAGUGAGUAGAAGGGACGAACA [EX5 #74] (Eterna round: R97, puzzle: Exclusion 5) here?
Result: c3

Problem: Kindly identify the class of AUAAUGUAAGGAUAUCAGUCGUUAAUAAUUAAUUAAUCGACUGAGAAGGUACAUGAGGAUCACCCAUGUGAUCA [E4/8-B2] (Eterna round: R97, puzzle: Exclusion 4) .
Result: c3

Problem: Which apparent KD of MS2 coat protein band matches GAUUAACAAGCGAGAUCCCACAUGAGGAUCACCCAUGUGCUCGUCUUAUAAGGUACUGUGACGAAAGUCACGGUACC [Mat - Sensor, turn-off var - Eli Mod - D5] (Eterna round: R97, puzzle: Sensor, turn-off variant 1) ?
Result: c1

Problem: Consider UUCCAACAUGAGGAUCACCCAUGUCAGGAUAUCUAGGCUACUGCUACCACAAUUAGCUAGAGAAGGGACAAGAU [EX1 B.14] (Eterna round: R97, puzzle: Exclusion 1) . To which apparent KD of MS2 coat protein class does it belong?
Result: c2
